Tested on: HCT-116
Experiment: Antiproliferative activity against human HCT-116 cells assessed as reduction in cell viability incubated for 24 hrs by MTT assay
Type: functional, cell-based
Settings: HCT-116, 24 h
metric: IC50 (µM)
The response must be a number in µM with no trailing unit.

// IC50 value for CC(=O)NS(=O)(=O)c1ccc(NC(=O)CSc2nc3ccccc3c(=O)n2-c2ccc(C)cc2)cc1 : 6.14

GET /value?item= Cc1ccc(-n2c(SCC(=O)Nc3ccc(C(=O)NCc4ccccc4)cc3)nc3ccccc3c2=O)cc1 &field=IC50 returns 13.4

Entry under test: Cc1ccc(-n2c(SCC(=O)Nc3ccc(C(=O)Nc4ccc(Cl)cc4)cc3)nc3ccccc3c2=O)cc1 . Its IC50 was 3.67

Entry CC(=O)c1ccc(NC(=O)CSc2nc3ccccc3c(=O)n2-c2ccc(C)cc2)cc1 ; IC50 = 8.27

IC50 recorded for this molecule, Cc1ccc(-n2c(SCC(=O)Nc3ccc(S(=O)(=O)Nc4ccccn4)cc3)nc3ccccc3c2=O)cc1 , is 24.1

Sample Cc1ccc(-n2c(SCC(=O)Nc3ccc(C(=O)Nc4ccccc4)cc3)nc3ccccc3c2=O)cc1 ; IC50 observed: 16.6

For Cc1ccc(-n2c(SCC(=O)Nc3ccc(S(=O)(=O)Nc4nc(C)cc(C)n4)cc3)nc3ccccc3c2=O)cc1 the molecule record lists IC50 as 5.24

The measured IC50 associated with C/C(=N\NC(=O)c1cc([N+](=O)[O-])ccc1Cl)c1ccc(NC(=O)CSc2nc3ccccc3c(=O)n2-c2ccc(C)cc2)cc1 reads 1.68

Summary for this molecule, CCOC(=O)c1ccc(NC(=O)c2ccc(NC(=O)CSc3nc4ccccc4c(=O)n3-c3ccc(C)cc3)cc2)cc1 : IC50 is 17

Summary for this molecule, Cc1ccc(-n2c(SCC(=O)Nc3ccc(C(=O)NNc4ccccc4)cc3)nc3ccccc3c2=O)cc1 : IC50 is 9.4

Entry under test: C/C(=N\NC(N)=S)c1ccc(NC(=O)CSc2nc3ccccc3c(=O)n2-c2ccc(C)cc2)cc1 . Its IC50 was 8.32

// field: IC50; key: Cc1ccc(-n2c(SCC(=O)Nc3ccc(C(=O)NNC(=O)c4ccccc4O)cc3)nc3ccccc3c2=O)cc1 ; value = 10.8

C/C(=N\NC(=O)c1cccc(Cl)c1)c1ccc(NC(=O)CSc2nc3ccccc3c(=O)n2-c2ccc(C)cc2)cc1 has a reported IC50 of 30.4

IC50 measured on Cc1ccc(NC(=O)c2ccc(NC(=O)CSc3nc4ccccc4c(=O)n3-c3ccc(C)cc3)cc2)cc1 = 17.4

Form: molecule = C/C(=N\NC(=O)c1ccccc1Cl)c1ccc(NC(=O)CSc2nc3ccccc3c(=O)n2-c2ccc(C)cc2)cc1 ; IC50 = 17.1

response.value for COc1cccc2c1C(=O)c1c(O)c3c(c(O)c1C2=O)C[C@@](O)(C(=O)CO)C[C@@H]3O[C@H]1C[C@H](N)[C@H](O)[C@H](C)O1 [DOXORUBICIN] (field: IC50) = 9.63

Reported IC50 for Cc1ccc(-n2c(SCC(=O)Nc3ccc(C(=O)NC4CCCCC4)cc3)nc3ccccc3c2=O)cc1 was 14.1

The molecule listed as C/C(=N\NC(=O)c1ccccc1)c1ccc(NC(=O)CSc2nc3ccccc3c(=O)n2-c2ccc(C)cc2)cc1 shows IC50 equal to 29
